Molecular target: T1, cynomolgus DKK1 (cynomolgus monkey (Macaca fascicularis), UniProt A0A7N9IE82 32-266)
T1 construct: also called cyno DKK1; monkey DKK1 (Novartis)
T1 sequence: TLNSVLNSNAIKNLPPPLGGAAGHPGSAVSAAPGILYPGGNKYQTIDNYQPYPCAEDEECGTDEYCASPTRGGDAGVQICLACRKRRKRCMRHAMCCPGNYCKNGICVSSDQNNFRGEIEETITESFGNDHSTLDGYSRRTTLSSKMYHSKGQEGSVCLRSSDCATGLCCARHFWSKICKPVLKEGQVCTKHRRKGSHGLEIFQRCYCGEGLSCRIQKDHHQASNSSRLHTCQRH
Assay: solution equilibrium titration (SET), ECL (BioVeris), Fab
assay-endpoint: pKd
On this scale, pKd is minus log10 of a concentration expressed in M (mol/L).

[[record]]
binder = "MOR04954 (Fab, V domains shown) VH: QVQLVESGGGLVQPGGSLRLSCAASGFTFSSYWMSWVRQAPGKGLEWVSVIEHKDKGGTTYYAASVKGRFTISRDNSKNTLYLQMNSLRAEDTAVYYCARHGIDFDHWGQGTLVTVSS VL: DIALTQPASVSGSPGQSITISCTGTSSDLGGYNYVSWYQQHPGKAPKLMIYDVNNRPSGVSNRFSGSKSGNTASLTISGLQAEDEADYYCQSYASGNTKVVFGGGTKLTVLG"
endpoint_value = 9.95

[[record]]
binder = "MOR04920 (Fab, V domains shown) VH: QVQLVESGGGLVQPGGSLRLSCAASGFTFSSYWMSWVRQAPGKGLEWVSSIEHKDAGYTTWYAAGVKGRFTISRDNSKNTLYLQMNSLRAEDTAVYYCARHGIDFDHWGQGTLVTVSS VL: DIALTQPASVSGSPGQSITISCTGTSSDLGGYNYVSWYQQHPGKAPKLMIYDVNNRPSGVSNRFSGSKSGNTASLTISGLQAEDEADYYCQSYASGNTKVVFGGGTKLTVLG"
endpoint_value = 10.30

[[record]]
binder = "MOR04907 (Fab, V domains shown) VH: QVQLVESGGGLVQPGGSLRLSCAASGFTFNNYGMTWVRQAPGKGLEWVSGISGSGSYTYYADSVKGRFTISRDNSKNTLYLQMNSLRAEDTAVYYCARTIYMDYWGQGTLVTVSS VL: DIVLTQSPATLSLSPGERATLSCRASQNLFSPYLAWYQQKPGQAPRLLIYGASNRATGVPARFSGSGSGTDFTLTISSLEPEDFAVYYCQQYLSLPTTFGQGTKVEIKR"
endpoint_value = 9.77

[[record]]
binder = "MOR04914 (Fab, V domains shown) VH: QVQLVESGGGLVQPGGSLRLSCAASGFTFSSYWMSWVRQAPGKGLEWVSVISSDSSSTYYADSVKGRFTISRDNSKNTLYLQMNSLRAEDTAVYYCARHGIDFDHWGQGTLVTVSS VL: DIALTQPASVSGSPGQSITISCTGTSSDLGGYNYVSWYQQHPGKAPKLMIYDVNNRPSGVSNRFSGSKSGNTASLTISGLQAEDEADYYCQSYTYTPISPVFGGGTKLTVLG"
endpoint_value = 9.85


Next, consider the following binder.
Reported pKd of MOR04947 (Fab, V domains shown) VH: QVQLVQSGAEVKKPGESLKISCKGSGYSFTNYYIGWVRQMPGKGLEWMGIIVPGTSYTIYSPSFQGQVTISADKSISTAYLQWSSLKASDTAMYYCARGIPFRMRGFDYWGQGTLVTVSS VL: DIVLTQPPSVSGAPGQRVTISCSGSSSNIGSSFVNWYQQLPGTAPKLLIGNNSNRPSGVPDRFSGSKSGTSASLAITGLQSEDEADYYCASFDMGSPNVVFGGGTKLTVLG : 10.24
